The reader will find reported log10 of CC50 values listed item by item below.
# EXPERIMENT: Cytotoxicity against human MT4 cells assessed as reduction in cell viability by MTT assay
# Format: toxicity, cell-based
Base-10 log of CC50, unit µM.

Worked cases, log10 of CC50 given:
| COMPOUND | QUANTITY_NAME | READOUT_NUMBER |
| --- | --- | --- |
| Cn1c(Cn2ccc(C(F)(F)F)c(Oc3cc(Cl)cc(-c4ccc(N)nc4)c3)c2=O)n[nH]c1=O | log10 of CC50 | 1.51 |
| Cn1c(Cn2ccc(C(F)(F)F)c(Oc3cc(Cl)cc(-c4ccoc4)c3)c2=O)n[nH]c1=O | log10 of CC50 | 1.76 |
| Cn1c(Cn2ccc(C(F)(F)F)c(Oc3cc(Cl)cc(-c4ccc(O)cc4)c3)c2=O)n[nH]c1=O | log10 of CC50 | 1.21 |
| Cn1c(Cn2ccc(C(F)(F)F)c(Oc3cc(Cl)cc(-c4ccco4)c3)c2=O)n[nH]c1=O | log10 of CC50 | 1.77 |
| Cn1c(Cn2ccc(C(F)(F)F)c(Oc3cc(Cl)cc(-c4ccc(F)cc4)c3)c2=O)n[nH]c1=O | log10 of CC50 | 1.50 |

Please give the measured log10 of CC50 for this compound: Cn1c(Cn2ccc(C(F)(F)F)c(Oc3cc(Cl)cc(-c4cccnc4)c3)c2=O)n[nH]c1=O
1.11

Please give the measured log10 of CC50 for this compound: COC(=O)c1ccc(-c2cc(Cl)cc(Oc3c(C(F)(F)F)ccn(Cc4n[nH]c(=O)n4C)c3=O)c2)cc1
1.68

Please give the measured log10 of CC50 for this compound: Cn1c(Cn2ccc(C(F)(F)F)c(Oc3cc(Cl)cc(-c4ccc(N)cc4)c3)c2=O)n[nH]c1=O
1.53

Please give the measured log10 of CC50 for this compound: Cn1c(Cn2ccc(C(F)(F)F)c(Oc3cc(Cl)cc(-c4cnc5ccccc5c4)c3)c2=O)n[nH]c1=O
1.76

Please give the measured log10 of CC50 for this compound: Cn1c(Cn2ccc(C(F)(F)F)c(Oc3cc(Cl)cc(C(=O)O)c3)c2=O)n[nH]c1=O
1.53

----------
# EXPERIMENT: AUC (0 to infinity) in Sprague-Dawley rat at 2 mg/kg, iv measured upto 24 hrs by LC-MS/MS analysis
# Assay type: ADME, organism-based
# CONDITION_LABEL: in vivo
QUANTITY_NAME: AUC(0-inf) (ng·h/mL)
Use ng·h/mL as the unit, but write only the number.

Please give the measured AUC(0-inf) for this compound: Cn1c(Cn2ccc(C(F)(F)F)c(Oc3cc(Cl)cc(-c4ccc(Br)cc4)c3)c2=O)n[nH]c1=O
7670

----------
# EXPERIMENT: Half life in Sprague-Dawley rat at 10 mg/kg, po measured upto 24 hrs by LC-MS/MS analysis
# Type: ADME, organism-based
# CONDITION_LABEL: in vivo
QUANTITY_NAME: half-life (h)
Use h as the unit, but write only the number.

Please give the measured half-life for this compound: Cn1c(Cn2ccc(C(F)(F)F)c(Oc3cc(Cl)cc(-c4ccc(Br)cc4)c3)c2=O)n[nH]c1=O
5.09

----------
# EXPERIMENT: Water solubility of compound at pH 7.4 incubated for 2 hrs by HPLC analysis
# Assay type: physicochemical
QUANTITY_NAME: solubility at 2 h (mg/mL)
Use mg/mL as the unit, but write only the number.

Please give the measured solubility at 2 h for this compound: Cn1c(Cn2ccc(C(F)(F)F)c(Oc3cc(Cl)cc(-c4ccc(Br)cc4)c3)c2=O)n[nH]c1=O
0.0322
